Test system: MV4-11 cells
assay.notes: Growth inhibition, MTS assay, MV4-11
Format: cell-based, Human
condition.details: 72 hours, MTS cell viability; read-out: MV4-11 ED50
measured.property: IC50

CC(C)n1c(N2CCNCC2CO)nc2c([N+](=O)[O-])c(Br)c(Br)cc21 (stereo not drawn)	0.5 µM
CC(C)n1c(N[C@H]2CNC[C@@H]2O)nc2c([N+](=O)[O-])c(Br)c(Br)cc21.Cl	2.8 µM
CC(C)n1c(N2CC[C@H](N)C2)nc2c([N+](=O)[O-])c(Br)c(Br)cc21	1.1 µM
CC(C)n1c(NC2CNC2)nc2c([N+](=O)[O-])c(Br)c(Br)cc21	1.1 µM
CCn1c(N2CCNCC2C)nc2c([N+](=O)[O-])c(Cl)c(Cl)cc21 (stereo not drawn)	0.5 µM
CCCn1c(N2CCNCC2)nc2c([N+](=O)[O-])c(Br)c(Br)cc21	0.6 µM

-- ask Param readout= IC50; system= MV4-11 cells; entry= "CC(C)n1c(N2CCC(N)CC2)nc2c([N+](=O)[O-])c(Br)c(Br)cc21" ; returns value.
-- reply 0.6 µM

-- ask Same thing, different compound: CC(C)n1c(N[C@@H]2CCCNC2)nc2c([N+](=O)[O-])c(Br)c(Br)cc21 [Example 1CA]
-- reply 2.6 µM

-- ask Same thing, different compound: "COCCn1c(N2CC[C@@H](N)C2)nc2c([N+](=O)[O-])c(Br)c(Br)cc21"
-- reply 4.8 µM

-- ask Same thing, different compound: "CC(C)n1c(N[C@H]2CCNC2)nc2c([N+](=O)[O-])c(Br)c(Br)cc21"
-- reply 0.7 µM

-- ask Same thing, different compound: "CC(C)n1c(N2CCC[C@H](N)C2)nc2c([N+](=O)[O-])c(Br)c(Br)cc21"
-- reply 0.3 µM

-- ask Same thing, different compound: "CCCn1c(NCCCN)nc2c([N+](=O)[O-])c(Br)c(Br)cc21"
-- reply 1.4 µM

-- ask Same thing, different compound: "NCCCNc1nc2c([N+](=O)[O-])c(Br)c(Br)cc2n1CC1CC1"
-- reply 2.8 µM

-- ask Same thing, different compound: "CC(C)n1c(N2CCNCC2)nc2c([N+](=O)[O-])c(Br)c(F)cc21"
-- reply 1.0 µM

-- ask Same thing, different compound: "CCn1c(N2CC[C@@H](N)C2)nc2c([N+](=O)[O-])c(Cl)c(Cl)cc21"
-- reply 4.3 µM

-- ask Same thing, different compound: "CCn1c(N2CCC(N)CC2)nc2c([N+](=O)[O-])c(Br)c(Br)cc21"
-- reply 5.1 µM

-- ask Same thing, different compound: "CCn1c(N[C@H]2CCCNC2)nc2c([N+](=O)[O-])c(Br)c(Br)cc21"
-- reply 1.3 µM

-- ask Same thing, different compound: CCn1c(NC2CCC(N)CC2)nc2c([N+](=O)[O-])c(Br)c(Br)cc21 (stereo not drawn) [Example 1DU]
-- reply 1.0 µM

-- ask Same thing, different compound: CCn1c(NC2CCC(N)CC2)nc2c([N+](=O)[O-])c(Br)c(Br)cc21 (stereo not drawn) [Example 1H]
-- reply 2.3 µM

-- ask Same thing, different compound: CC(C)n1c(NC2CCC(N)CC2)nc2c([N+](=O)[O-])c(Br)c(Br)cc21 (stereo not drawn)
-- reply 1.7 µM

-- ask Same thing, different compound: "O=[N+]([O-])c1c(Br)c(Br)cc2c1nc(N[C@@H]1CCNC1)n2CC1CC1"
-- reply 5.5 µM

-- ask Same thing, different compound: "Cl.N[C@H]1CCN(c2nc3c([N+](=O)[O-])c(Br)c(Br)cc3n2CC2CC2)C1"
-- reply 2.0 µM

-- ask Same thing, different compound: CCn1c(N2CCCC(N)C2)nc2c([N+](=O)[O-])c(Br)c(Br)cc21.Cl (stereo not drawn)
-- reply 2.3 µM

-- ask Same thing, different compound: "CCn1c(N2CCC[C@H](N)C2)nc2c([N+](=O)[O-])c(Cl)c(Cl)cc21"
-- reply 2.7 µM

-- ask Same thing, different compound: "N[C@@H]1CCN(c2nc3c([N+](=O)[O-])c(Br)c(Br)cc3n2CCCO)C1"
-- reply 2.0 µM

-- ask Same thing, different compound: CC(C)n1c(NC2CCNC2)nc2c(C#N)c(Br)c(Br)cc21 (stereo not drawn) [Example 1BH]
-- reply 4.6 µM

-- ask Same thing, different compound: "O=[N+]([O-])c1c(Br)c(Br)cc2c1nc(N[C@H]1CCNC1)n2CC1CC1"
-- reply 1.6 µM

-- ask Same thing, different compound: "CCn1c(N2CCNCC2)nc2c([N+](=O)[O-])c(Cl)c(Cl)cc21"
-- reply 3.3 µM

-- ask Same thing, different compound: CC(C)n1c(N2CCC[C@H](N)C2)nc2c(C#N)c(Br)c(Br)cc21 [Example 1BJ]
-- reply 0.6 µM

-- ask Same thing, different compound: CC(C)n1c(C2CCCC(N)C2)nc2c([N+](=O)[O-])c(Br)c(Br)cc21 (single isomer, unassigned) [Example 26B]
-- reply 0.4 µM
